Parameter IC50: see the listing below.
- SYSTEM UNDER TEST: Sodium-dependent serotonin transporter (Rattus norvegicus)
- Sequence (P31652 whole entry): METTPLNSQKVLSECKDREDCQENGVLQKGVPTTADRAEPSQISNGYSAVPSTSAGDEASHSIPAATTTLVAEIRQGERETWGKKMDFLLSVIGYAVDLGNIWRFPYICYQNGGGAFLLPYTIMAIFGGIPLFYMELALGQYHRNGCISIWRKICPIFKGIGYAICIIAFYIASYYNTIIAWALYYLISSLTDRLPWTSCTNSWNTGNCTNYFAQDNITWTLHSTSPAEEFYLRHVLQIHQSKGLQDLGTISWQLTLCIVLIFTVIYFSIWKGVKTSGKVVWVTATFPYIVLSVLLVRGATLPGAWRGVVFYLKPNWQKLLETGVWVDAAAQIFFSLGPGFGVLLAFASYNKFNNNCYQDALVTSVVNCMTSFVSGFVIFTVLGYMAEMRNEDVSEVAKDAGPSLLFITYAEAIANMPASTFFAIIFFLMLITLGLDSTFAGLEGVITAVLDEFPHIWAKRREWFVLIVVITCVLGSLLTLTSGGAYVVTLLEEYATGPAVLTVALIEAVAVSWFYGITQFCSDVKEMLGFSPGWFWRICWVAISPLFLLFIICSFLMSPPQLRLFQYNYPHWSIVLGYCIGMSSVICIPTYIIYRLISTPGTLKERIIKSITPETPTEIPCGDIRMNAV
Give the value, in units of µM, as a plain number.

Some compounds with known IC50 results, for comparison:
1) O[C@H]1CN(Cc2ccc(F)cc2)CC[C@H]1CCOC(c1ccccc1)c1ccccc1 (racemic) | 3.31
2) CCC(=O)O[C@@H]1CN(Cc2ccc(F)cc2)CC[C@H]1CCOC(c1ccccc1)c1ccccc1 | 178

Prompt line: Find the measured IC50: item OC1CN(Cc2ccc(F)cc2)CC[C@@H]1CCOC(c1ccccc1)c1ccccc1 (stereo partly specified) , target or system Sodium-dependent serotonin transporter (Rattus norvegicus).
Response line: 3.6

Prompt line: Find the measured IC50: item O[C@@H]1CN(Cc2ccc(F)cc2)CC[C@H]1CCOC(c1ccccc1)c1ccccc1 , target or system Sodium-dependent serotonin transporter (Rattus norvegicus).
Response line: 1.83

Prompt line: Find the measured IC50: item O[C@@H]1CN(Cc2ccc(F)cc2)CC[C@H]1CCOC(c1ccccc1)c1ccccc1 (racemic) , target or system Sodium-dependent serotonin transporter (Rattus norvegicus).
Response line: 2.36

Prompt line: Find the measured IC50: item O=C1CN(Cc2ccc(F)cc2)CC[C@H]1CCOC(c1ccccc1)c1ccccc1 , target or system Sodium-dependent serotonin transporter (Rattus norvegicus).
Response line: 7.75

====

- SYSTEM UNDER TEST: Sodium-dependent dopamine transporter (Rattus norvegicus)
- Sequence (P23977 whole entry): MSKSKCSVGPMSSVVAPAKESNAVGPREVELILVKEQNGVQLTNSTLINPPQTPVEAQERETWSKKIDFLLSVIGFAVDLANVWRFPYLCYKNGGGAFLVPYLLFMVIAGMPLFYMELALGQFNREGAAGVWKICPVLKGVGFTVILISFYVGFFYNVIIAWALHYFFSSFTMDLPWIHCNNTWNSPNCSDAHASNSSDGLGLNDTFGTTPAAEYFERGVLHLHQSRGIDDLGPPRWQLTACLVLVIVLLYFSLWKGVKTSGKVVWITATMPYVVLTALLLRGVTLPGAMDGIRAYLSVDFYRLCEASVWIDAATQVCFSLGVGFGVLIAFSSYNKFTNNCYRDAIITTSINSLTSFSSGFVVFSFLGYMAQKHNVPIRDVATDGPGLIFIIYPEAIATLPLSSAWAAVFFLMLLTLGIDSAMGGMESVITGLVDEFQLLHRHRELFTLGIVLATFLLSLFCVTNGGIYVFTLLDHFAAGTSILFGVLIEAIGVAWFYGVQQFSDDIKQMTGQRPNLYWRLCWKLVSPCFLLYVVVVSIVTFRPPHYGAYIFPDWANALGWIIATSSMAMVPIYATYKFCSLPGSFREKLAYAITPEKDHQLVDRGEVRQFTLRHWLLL
- EXPERIMENTAL DETAILS: Inhibition of uptake from dopamine transporter in rat striatum using [3H]DA as radioligand
- Type: functional, tissue-based
MEASURED ATTRIBUTE: pIC50
Scale explanation: pIC50 corresponds to minus log10 of a concentration expressed in moles per litre.

Some compounds with known pIC50 results, for comparison:
1) O[C@@H]1CN(Cc2ccc(F)cc2)CC[C@H]1CCOC(c1ccccc1)c1ccccc1 | 7.42
2) O[C@H]1CN(Cc2ccc(F)cc2)CC[C@H]1CCOC(c1ccccc1)c1ccccc1 (racemic) | 8.00
3) Fc1ccc(CN2CCC(CCOC(c3ccccc3)c3ccccc3)CC2)cc1 | 8.61
4) O[C@@H]1CN(Cc2ccc(F)cc2)CC[C@H]1CCOC(c1ccccc1)c1ccccc1 (racemic) | 8.49

Turning to the following compound.
Prompt line: Can you look up the measured pIC50 of OC1CN(Cc2ccc(F)cc2)CC[C@@H]1CCOC(c1ccccc1)c1ccccc1 (stereo not given in full) for me?
Response line: 8.39
